Kindly supply the reported Tumor Volume TV (mean ± SD) d 10 values for the records listed here.
Tested on: human colon cancer HCT-116
Test: Subcutaneously transplanted tumors in nude mice
Assay type: in vivo, BALB/cA nude mice
Settings: Table 2.2; 20 mg/kg; d 10
Method: The solvents are isopropanol and anhydrous ethanol (mixed in the volume ratio of 1:1). […] Tumor tissues in the vigorous growth period are cut into about 1.5 mm^3, and inoculated to the right axilla subcutaneous layer of the nude mice under aseptic conditions. For the subcutaneously transplanted tumors of the nude mice, the diameter of the transplanted tumors is measured by a vernier caliper. […]

The following compounds have reported results that may help.
>  <mol smiles>
C/C=C1\NC(=O)c2csc(n2)CNC(=O)C[C@@H](/C=C/CCSC(=O)CCCCCCC)OC(=O)[C@H](Cc2ccc(O)cc2)NC1=O

>  <assay target>
human colon cancer HCT-116

>  <endpoint result>
203 ± 69 mm^3

$$$$
>  <mol smiles>
C/C=C1\NC(=O)c2csc(n2)CNC(=O)C[C@@H](/C=C/CCSC(=O)CCCCCCC)OC(=O)[C@H](C(C)(C)C)NC1=O

>  <assay target>
human colon cancer HCT-116

>  <endpoint result>
195 ± 58 mm^3

$$$$
>  <mol smiles>
C/C=C1\NC(=O)c2csc(n2)CNC(=O)C[C@@H](/C=C/CCSC(=O)CCCCCCC)OC(=O)[C@H](C)NC1=O

>  <assay target>
human colon cancer HCT-116

>  <endpoint result>
189 ± 52 mm^3

$$$$

Now for the compound whose Tumor Volume TV (mean ± SD) d 10 we want.
INPUT: Give me measured Tumor Volume TV (mean ± SD) d 10, please, for this compound: `C/C=C1\NC(=O)c2csc(n2)CNC(=O)C[C@@H](/C=C/CCSC(=O)CCCCCCC)OC(=O)[C@H](Cc2ccccc2)NC1=O`
OUTPUT: 199 ± 68 mm^3

###

Kindly supply the reported Weight (mean ± SD) d 21 values for the records listed here.
system: human colon cancer HCT-116; assay: Subcutaneously transplanted tumors in nude mice; format: in vivo, BALB/cA nude mice; settings: Table 2.3; 20 mg/kg; d 21
Answers are plain numbers, in g.

The following molecules have reported results that may help.
>  <molecule>
C/C=C1\NC(=O)c2csc(n2)CNC(=O)C[C@@H](/C=C/CCSC(=O)CCCCCCC)OC(=O)[C@H](C(C)(C)C)NC1=O [Compound 1-6]

>  <assay target>
human colon cancer HCT-116

>  <Weight (mean ± SD) d 21 (g)>
13.1

$$$$
>  <molecule>
C/C=C1\NC(=O)c2csc(n2)CNC(=O)C[C@@H](/C=C/CCSC(=O)CCCCCCC)OC(=O)[C@H](Cc2ccc(O)cc2)NC1=O [Compound 1-8]

>  <assay target>
human colon cancer HCT-116

>  <Weight (mean ± SD) d 21 (g)>
12.9

$$$$
>  <molecule>
C/C=C1\NC(=O)c2csc(n2)CNC(=O)C[C@@H](/C=C/CCSC(=O)CCCCCCC)OC(=O)[C@H](C)NC1=O [Compound 1-4]

>  <assay target>
human colon cancer HCT-116

>  <Weight (mean ± SD) d 21 (g)>
13.0

$$$$

Now for the molecule whose Weight (mean ± SD) d 21 we want.
INPUT: Give me measured Weight (mean ± SD) d 21, please, for this molecule: C/C=C1\NC(=O)c2csc(n2)CNC(=O)C[C@@H](/C=C/CCSC(=O)CCCCCCC)OC(=O)[C@H](Cc2ccccc2)NC1=O [Compound 1-7]
OUTPUT: 13.2

###

Kindly supply the reported Weight d0 values for the records listed here.
test system: human colon cancer HCT-116; test: Subcutaneously transplanted tumors in nude mice; type: in vivo, BALB/cA nude mice; conditions: Table 2.1; 20 mg/kg q3d × 3w iv; d0
Give bare numbers, in g.

>  <mol smiles>
C/C=C1\NC(=O)c2csc(n2)CNC(=O)C[C@@H](/C=C/CCSC(=O)CCCCCCC)OC(=O)[C@H](C)NC1=O

>  <assay target>
human colon cancer HCT-116

>  <Weight d0 [g]>
16.6

$$$$
>  <mol smiles>
C/C=C1\NC(=O)c2csc(n2)CNC(=O)C[C@@H](/C=C/CCSC(=O)CCCCCCC)OC(=O)[C@H](Cc2ccc(O)cc2)NC1=O

>  <assay target>
human colon cancer HCT-116

>  <Weight d0 [g]>
16.1

$$$$
>  <mol smiles>
C/C=C1\NC(=O)c2csc(n2)CNC(=O)C[C@@H](/C=C/CCSC(=O)CCCCCCC)OC(=O)[C@H](C(C)(C)C)NC1=O

>  <assay target>
human colon cancer HCT-116

>  <Weight d0 [g]>
16.9

$$$$

INPUT: Enter recorded Weight d0 with human colon cancer HCT-116 for `C/C=C1\NC(=O)c2csc(n2)CNC(=O)C[C@@H](/C=C/CCSC(=O)CCCCCCC)OC(=O)[C@H](Cc2ccccc2)NC1=O` here.
OUTPUT: 16.6

###

tested on: human colon cancer HCT-116; experiment: Subcutaneously transplanted tumors in nude mice; assay type: in vivo, BALB/cA nude mice; settings: Table 2.3; 20 mg/kg; d 3
test readout: Weight (mean ± SD) d 3 (g)
One number for each entry, in g.

The following compounds have reported results that may help.
>  <compound>
C/C=C1\NC(=O)c2csc(n2)CNC(=O)C[C@@H](/C=C/CCSC(=O)CCCCCCC)OC(=O)[C@H](Cc2ccccc2)NC1=O [Compound 1-7]

>  <unit abbreviation>
g

>  <Weight (mean ± SD) d 3>
15.9

$$$$
>  <compound>
C/C=C1\NC(=O)c2csc(n2)CNC(=O)C[C@@H](/C=C/CCSC(=O)CCCCCCC)OC(=O)[C@H](C)NC1=O [Compound 1-4]

>  <unit abbreviation>
g

>  <Weight (mean ± SD) d 3>
16.2

$$$$
>  <compound>
C/C=C1\NC(=O)c2csc(n2)CNC(=O)C[C@@H](/C=C/CCSC(=O)CCCCCCC)OC(=O)[C@H](Cc2ccc(O)cc2)NC1=O [Compound 1-8]

>  <unit abbreviation>
g

>  <Weight (mean ± SD) d 3>
15.8

$$$$

Now for the compound whose Weight (mean ± SD) d 3 we want.
INPUT: Give me measured Weight (mean ± SD) d 3, please, for this compound: C/C=C1\NC(=O)c2csc(n2)CNC(=O)C[C@@H](/C=C/CCSC(=O)CCCCCCC)OC(=O)[C@H](C(C)(C)C)NC1=O [Compound 1-6]
OUTPUT: 16.6

###

Kindly supply the reported Weight (mean ± SD) d 7 values for the records listed here.
Tested on: human colon cancer HCT-116
Experiment: Subcutaneously transplanted tumors in nude mice
Format: in vivo, BALB/cA nude mice
Details: Table 2.3; 20 mg/kg; d 7
Protocol: The solvents are isopropanol and anhydrous ethanol (mixed in the volume ratio of 1:1). […] Tumor tissues in the vigorous growth period are cut into about 1.5 mm^3, and inoculated to the right axilla subcutaneous layer of the nude mice under aseptic conditions. For the subcutaneously transplanted tumors of the nude mice, the diameter of the transplanted tumors is measured by a vernier caliper. […]
Give bare numbers, in g.

The following compounds have reported results that may help.
>  <mol smiles>
C/C=C1\NC(=O)c2csc(n2)CNC(=O)C[C@@H](/C=C/CCSC(=O)CCCCCCC)OC(=O)[C@H](C)NC1=O

>  <unit abbreviation>
g

>  <Weight (mean ± SD) d 7>
14.8

$$$$
>  <mol smiles>
C/C=C1\NC(=O)c2csc(n2)CNC(=O)C[C@@H](/C=C/CCSC(=O)CCCCCCC)OC(=O)[C@H](Cc2ccc(O)cc2)NC1=O

>  <unit abbreviation>
g

>  <Weight (mean ± SD) d 7>
15.1

$$$$
>  <mol smiles>
C/C=C1\NC(=O)c2csc(n2)CNC(=O)C[C@@H](/C=C/CCSC(=O)CCCCCCC)OC(=O)[C@H](Cc2ccccc2)NC1=O

>  <unit abbreviation>
g

>  <Weight (mean ± SD) d 7>
15.1

$$$$

INPUT: Give me measured Weight (mean ± SD) d 7, please, for this compound: `C/C=C1\NC(=O)c2csc(n2)CNC(=O)C[C@@H](/C=C/CCSC(=O)CCCCCCC)OC(=O)[C@H](C(C)(C)C)NC1=O`
OUTPUT: 15.9

###

Tested on: human colon cancer HCT-116
Test: Subcutaneously transplanted tumors in nude mice
Type: in vivo, BALB/cA nude mice
Conditions: Table 2.2; 20 mg/kg; d 14
Procedure: The solvents are isopropanol and anhydrous ethanol (mixed in the volume ratio of 1:1). […] Tumor tissues in the vigorous growth period are cut into about 1.5 mm^3, and inoculated to the right axilla subcutaneous layer of the nude mice under aseptic conditions. For the subcutaneously transplanted tumors of the nude mice, the diameter of the transplanted tumors is measured by a vernier caliper. […]
test readout: Tumor Volume TV (mean ± SD) d 14

>  <mol smiles>
C/C=C1\NC(=O)c2csc(n2)CNC(=O)C[C@@H](/C=C/CCSC(=O)CCCCCCC)OC(=O)[C@H](C(C)(C)C)NC1=O

>  <assay target>
human colon cancer HCT-116

>  <Tumor Volume TV (mean ± SD) d 14>
249 ± 110 mm^3

$$$$

// for each compound below, give its Tumor Volume TV (mean ± SD) d 14
1. C/C=C1\NC(=O)c2csc(n2)CNC(=O)C[C@@H](/C=C/CCSC(=O)CCCCCCC)OC(=O)[C@H](Cc2ccccc2)NC1=O
2. C/C=C1\NC(=O)c2csc(n2)CNC(=O)C[C@@H](/C=C/CCSC(=O)CCCCCCC)OC(=O)[C@H](Cc2ccc(O)cc2)NC1=O
3. C/C=C1\NC(=O)c2csc(n2)CNC(=O)C[C@@H](/C=C/CCSC(=O)CCCCCCC)OC(=O)[C@H](C)NC1=O

OUTPUT:
1. 245 ± 107 mm^3
2. 265 ± 127 mm^3
3. 234 ± 103 mm^3
